# Test system: A549
# assay-remarks: NCI tumour cell line growth inhibition, 48 h
Activity calls are given as the source filed them. Rule as the data show it: active = GI50 up to about 1.1 µM and inactive = higher.
metric: GI50

## Task What GI50 appears in the records for this compound with A549? `Cc1c(/C=N/NC(=O)c2ccccc2O)c(=O)n(-c2ccccc2)n1C`
## Result > 100 µM (inactive)

## Task Another compound to look at: C[C@H]1COC2(c3ccccc3)CCC(=O)N12 (stereo not given in full)
## Result > 100 µM (inactive)

## Task Another compound to look at: CC(=O)OCC12C(OC(C)=O)C[C@@H](C)C3(CC(c4ccoc4)OC3=O)C1CCC(O)C21CO1 (stereo not given in full)
## Result > 100 µM (inactive)

## Task Another compound to look at: COC1O[C@@H]2CCN3C(=O)[C@@H](OC(=O)c4ccc([N+](=O)[O-])cc4)[C@H]1C23 (stereo not given in full)
## Result > 100 µM (inactive)

## Task Another compound to look at: `CN1CNc2nc(N)n(C)c(=O)c2C1`
## Result > 10 µM (inactive)

Source of measurements: ChEMBL document CHEMBL1201862
